# Assay System: Cyclin-C/Cyclin-dependent kinase 19 (Homo sapiens, UniProt P24863+Q9BWU1)
# Sequence (Q9BWU1 whole entry): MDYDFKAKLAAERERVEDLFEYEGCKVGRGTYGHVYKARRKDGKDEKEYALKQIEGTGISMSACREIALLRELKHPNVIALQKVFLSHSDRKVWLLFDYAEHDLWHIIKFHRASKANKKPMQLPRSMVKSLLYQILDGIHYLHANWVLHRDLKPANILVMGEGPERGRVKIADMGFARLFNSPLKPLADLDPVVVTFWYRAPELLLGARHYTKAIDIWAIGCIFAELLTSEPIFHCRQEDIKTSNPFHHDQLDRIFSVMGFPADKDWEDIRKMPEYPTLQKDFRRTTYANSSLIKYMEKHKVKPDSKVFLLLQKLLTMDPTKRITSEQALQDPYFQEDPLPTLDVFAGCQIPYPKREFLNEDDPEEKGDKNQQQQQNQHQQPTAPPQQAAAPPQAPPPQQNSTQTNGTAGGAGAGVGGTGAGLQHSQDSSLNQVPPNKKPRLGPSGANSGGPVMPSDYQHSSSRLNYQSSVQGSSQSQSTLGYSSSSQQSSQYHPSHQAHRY
# Sequence (P24863 whole entry): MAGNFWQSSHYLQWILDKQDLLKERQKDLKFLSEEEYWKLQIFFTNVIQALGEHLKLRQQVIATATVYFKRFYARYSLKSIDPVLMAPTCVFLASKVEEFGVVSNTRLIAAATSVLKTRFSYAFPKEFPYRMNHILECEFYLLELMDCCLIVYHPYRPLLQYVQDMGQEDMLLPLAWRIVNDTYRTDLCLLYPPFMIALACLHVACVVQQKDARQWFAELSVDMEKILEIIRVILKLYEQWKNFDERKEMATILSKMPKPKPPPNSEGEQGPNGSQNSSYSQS
# Test Method Notes: Inhibition of CDK11/cyclin C (unknown origin)
Measured Metric: pIC50
Note: pIC50 values are expressed as the negative base-10 logarithm of concentration in M.

Lookup: What pIC50 value was documented for this molecule, CC(C)c1ccn2ncnc(N[C@H]3CC[C@@H](N4CCN(C(=O)CCC(=O)N5CCC(CCN6CCN(c7ccc8c(c7)C(=O)N(C7CCC(=O)NC7=O)C8=O)CC6)CC5)CC4)CC3)c12 (stereo partly specified) ?
Found: 7.80

----------
# Assay System: von Hippel-Lindau disease tumor suppressor/Interleukin-1 receptor-associated kinase 3 (Homo sapiens) (UniProt Q9Y616+P40337)
# Sequence (P40337 whole entry, looked up): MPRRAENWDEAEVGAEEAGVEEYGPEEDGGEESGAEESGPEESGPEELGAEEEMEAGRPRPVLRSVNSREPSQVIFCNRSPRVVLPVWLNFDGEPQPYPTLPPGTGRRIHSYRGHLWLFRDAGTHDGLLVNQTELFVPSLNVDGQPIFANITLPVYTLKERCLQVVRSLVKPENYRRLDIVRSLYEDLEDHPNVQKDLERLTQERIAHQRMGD
# Sequence (Q9Y616 whole entry, looked up): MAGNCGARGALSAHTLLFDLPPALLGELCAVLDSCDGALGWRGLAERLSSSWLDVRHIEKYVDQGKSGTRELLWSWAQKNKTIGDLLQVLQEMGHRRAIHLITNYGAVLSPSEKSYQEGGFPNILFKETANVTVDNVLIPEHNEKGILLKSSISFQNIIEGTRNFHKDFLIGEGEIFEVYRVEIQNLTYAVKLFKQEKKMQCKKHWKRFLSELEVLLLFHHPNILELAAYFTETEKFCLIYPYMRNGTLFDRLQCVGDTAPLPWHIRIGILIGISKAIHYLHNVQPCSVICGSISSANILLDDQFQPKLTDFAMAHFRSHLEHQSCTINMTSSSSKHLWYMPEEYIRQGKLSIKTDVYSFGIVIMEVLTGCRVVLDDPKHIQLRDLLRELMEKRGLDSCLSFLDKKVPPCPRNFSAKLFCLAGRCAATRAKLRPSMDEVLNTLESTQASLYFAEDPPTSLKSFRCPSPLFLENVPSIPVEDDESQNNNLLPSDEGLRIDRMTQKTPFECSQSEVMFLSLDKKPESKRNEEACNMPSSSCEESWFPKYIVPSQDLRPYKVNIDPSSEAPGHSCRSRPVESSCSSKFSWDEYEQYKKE
# Test Method Notes: Protac activity at VHL/IRAK3 in LPS-induced human THP1 cells assessed as induction of IRAK3 degradation at 1 uM by Western blot analysis relative to control
# Format: cell-based
# Cond: THP-1
Hi there, I'd appreciate the recorded Activity for every entry that follows.
Express the reported value numerically, then name its unit.

Lookup: GET /values?readout=Activity&item= Cc1ncsc1-c1ccc(CNC(=O)[C@@H]2C[C@@H](O)CN2C(=O)[C@@H](NC(=O)COCCOCCOCCOCCOCC(=O)N2CCN([C@H]3CC[C@@H](Nc4ncnn5ccc(C(C)C)c45)CC3)CC2)C(C)(C)C)cc1
Found: 21%

Lookup: Try this compound too: Cc1ncsc1-c1ccc(CNC(=O)[C@@H]2C[C@@H](O)CN2C(=O)[C@@H](NC(=O)CCCCCCNC(=O)CCC(=O)N2CCN([C@H]3CC[C@@H](Nc4ncnn5ccc(C(C)C)c45)CC3)CC2)C(C)(C)C)cc1
Found: 0%

Lookup: Likewise for Cc1ncsc1-c1ccc(CNC(=O)[C@@H]2C[C@@H](O)CN2C(=O)[C@@H](NC(=O)CCCNC(=O)CCC(=O)N2CCN([C@H]3CC[C@@H](Nc4ncnn5ccc(C(C)C)c45)CC3)CC2)C(C)(C)C)cc1 ?
Found: 0%

Lookup: Please do the same for Cc1ncsc1-c1ccc(CNC(=O)[C@@H]2C[C@@H](O)CN2C(=O)[C@@H](NC(=O)COCCOCCNC(=O)CCC(=O)N2CCN([C@H]3CC[C@@H](Nc4ncnn5ccc(C(C)C)c45)CC3)CC2)C(C)(C)C)cc1 as well.
Found: 0%

Lookup: Repeat for the following compound: Cc1ncsc1-c1ccc(CNC(=O)[C@@H]2C[C@@H](O)CN2C(=O)[C@@H](NC(=O)COCCOCCOCCNC(=O)CCC(=O)N2CCN([C@H]3CC[C@@H](Nc4ncnn5ccc(C(C)C)c45)CC3)CC2)C(C)(C)C)cc1
Found: 0%

Lookup: And what about the compound Cc1ncsc1-c1ccc(CNC(=O)[C@@H]2C[C@@H](O)CN2C(=O)[C@@H](NC(=O)COCCOCCOCCOCC(=O)N2CCN([C@H]3CC[C@@H](Nc4ncnn5ccc(C(C)C)c45)CC3)CC2)C(C)(C)C)cc1 ?
Found: 25%

Lookup: Then what about the compound Cc1ncsc1-c1ccc(CNC(=O)[C@@H]2C[C@@H](O)CN2C(=O)[C@@H](NC(=O)COCCOCCOCCOCCNC(=O)CCC(=O)N2CCN([C@H]3CC[C@@H](Nc4ncnn5ccc(C(C)C)c45)CC3)CC2)C(C)(C)C)cc1 ?
Found: 0%

Lookup: Do the same for Cc1ncsc1-c1ccc(CNC(=O)[C@@H]2C[C@@H](O)CN2C(=O)[C@@H](NC(=O)COCCOCCOCCOCCOCCOCC(=O)N2CCN([C@H]3CC[C@@H](Nc4ncnn5ccc(C(C)C)c45)CC3)CC2)C(C)(C)C)cc1 please
Found: 20%
